Measured ELISA reading by item
target: T1, soluble KDR extracellular domain (ECD) (Calbiochem) (human, UniProt P35968 20-764); assay: Limited Antigen ELISA, KDR coat 50 ng/mL, supernatant 1:25
T1 construct: extracellular domain; Bought protein; also called KDR-ECD; VEGF Receptor 2 D1-7, Cat. #676490
T1 sequence (P35968 20-764): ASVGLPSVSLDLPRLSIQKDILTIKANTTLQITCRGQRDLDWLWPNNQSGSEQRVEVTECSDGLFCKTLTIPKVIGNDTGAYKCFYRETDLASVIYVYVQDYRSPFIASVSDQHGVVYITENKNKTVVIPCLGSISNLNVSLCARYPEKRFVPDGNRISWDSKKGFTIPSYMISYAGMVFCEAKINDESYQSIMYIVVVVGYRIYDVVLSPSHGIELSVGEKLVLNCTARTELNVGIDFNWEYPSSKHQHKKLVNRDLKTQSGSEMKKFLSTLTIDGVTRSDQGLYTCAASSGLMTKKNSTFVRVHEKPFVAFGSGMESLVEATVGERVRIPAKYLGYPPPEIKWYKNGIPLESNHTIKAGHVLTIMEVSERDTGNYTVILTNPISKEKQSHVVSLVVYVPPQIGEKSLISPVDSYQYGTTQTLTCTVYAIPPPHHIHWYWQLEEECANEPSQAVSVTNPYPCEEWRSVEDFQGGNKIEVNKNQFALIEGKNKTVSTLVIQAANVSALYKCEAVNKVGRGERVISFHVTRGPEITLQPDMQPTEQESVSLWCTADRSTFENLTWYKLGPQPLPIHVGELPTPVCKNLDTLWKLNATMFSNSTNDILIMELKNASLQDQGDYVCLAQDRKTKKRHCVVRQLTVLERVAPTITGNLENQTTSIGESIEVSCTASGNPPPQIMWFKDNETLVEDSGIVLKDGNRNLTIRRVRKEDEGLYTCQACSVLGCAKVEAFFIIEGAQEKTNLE
measuredProperty: ELISA reading

# binder, measuredProperty, val
records = [
    ("32G7 (antibody, V domains shown, Fully human mAb from XenoMouse hybridoma, tested as hybridoma supernatant) VH: EVQLVESGGGLVKPGGSLRLSCAASGFTISSYSMNWVRQAPGKGLEWVSFISSRSNYIYYADSVKGRFTISRDNAKNSLYLQMNSLRAEDTAVYYCSKDDWFEELWGQGTLVTVSS VL: DIQMTQSPSSLSASVGDRVTITCRASQDIRNDLGWYQQKPGKAPKRLIYAASSLQSGVPSRFSGSGSGTEFTLTISSLQPEDFATYYCLQHNSFPWTFGQGTKVEIK", "ELISA reading", 0.19),
    ("22B8 (antibody, V domains shown, Fully human mAb from XenoMouse hybridoma, tested as hybridoma supernatant) VH: QLQLQESGPGLVKPSETLSLTCTVSGGSISSRYYYWGWVRQPPGKGLEWIGTIYYSGHTYYNPSLKTRVTISVDTSKNQFSLKLISVTAADTAVYYCATQQLVLYYFDFWGQGTLVTVSS VL: EIVLTQSPGTLSLSPGERAALSCRASQSISSSYLAWYQQRPGQAPRLLIYGASSRATGIPDRFNGSGSGTDFTLTISRLEPEDFAVYYCQQFGSSITFGQGTRLEIK", "ELISA reading", 3.36),
    ("29H3 (antibody, V domains shown, Fully human mAb from XenoMouse hybridoma, tested as hybridoma supernatant) VH: QVQLVQSGAEVKKPGASVKVSCKASGYTFTSYDINWVRQATGQGLEWMGWMNPNSGKTGYAQKFQGRVTMTRNTSINTAYMELSSLRSEDTAVYYCARGGYSNLGWFDPWGQGTLVTVSS VL: DIQMTQSPSSVSASVGDRVTITCRASQGISSWLVWYHQKPGKAPKLLIYGASSLQSGVPSRFSGSGSGTDFTLTISSLQPEDFATYYCQQANNFPFTFGPGTKVDIK", "ELISA reading", 2.13),
    ("24C9 (antibody, V domains shown, Fully human mAb from XenoMouse hybridoma, tested as hybridoma supernatant) VH: EVQLVESGGGLVKPGGSLRLSCAASGFTFSTYSMNWVRQAPGKGLEWVSFISGRSSYIYYADSVKGRFTISRDNAKNSLYLQMNSLRAEDTAVYYCSKDDWFEELWGQGTLVTVSS VL: DIQMTQSPSSLSASVGDRVTITCRASQGIRNDLGWYQQKPGKAPKRLIYATFSLQSGVPSRFSGSGSGTEFTLTISSLQPEDFATYYCLQHNRYPWTFGQGTKVEIK", "ELISA reading", 0.5),
    ("27A3 (antibody, V domains shown, Fully human mAb from XenoMouse hybridoma, tested as hybridoma supernatant) VH: QLQLQESGPGLVKPSETLSLTCTVSGGSISSRSDYWGWIRQPPGKGLEWIGTIYYSGDTYYNPSLKSRVTISVDTSKNQFSLKLSSVTAADTAVYYCARQQLVLYYFDYWGQGTLVTVSS VL: EIVLTQSPGTLSLSPGERATLSCRASQSVSSSYLAWYQQKPGQAPRLLIYATSNRATGIPDRFSGSGSGTDFTLTISRLEPEDFAVYYCQQHGSSPPLTFGGGTKVEIK", "ELISA reading", 2.3),
    ("30A1 (antibody, V domains shown, Fully human mAb from XenoMouse hybridoma, tested as hybridoma supernatant) VH: QLQLQESGPGLVKPSETLSLTCTVSGGSISSPNYYWGWIRQPPGKGLEWIGTIYYSGNTFYNPSLKSRVTISVDTSKNQFSLKLSSVTAADTAVYYCATQQLVLYYFDFWGQGTLVTVSS VL: EIVLTQSPGTLSLSPGKRAALSCRASQSISSSYLAWYQQKPGQAPRLLIYGASSRATGIPDRFNGSGSGTDFTLTISRLEPEDFAVYYCQQLGSSITFGQGTRLEIK", "ELISA reading", 1.77),
    ("21H6 (antibody, V domains shown, Fully human mAb from XenoMouse hybridoma, tested as hybridoma supernatant) VH: QVQLVESGGGLVKPGGSLRLSCAASGFTFSDYYMSWIRQAPGKGLEWVSYISNSGITIYYADSVKGRFTISRDNAKNSLYLQMNSLRAGDTAVYYCAREEWYSSRWYRNFDYWGQGTLVTVSS VL: DIQMTQFSSSLSASVGDRVTITCRASQSISRYLNWYQQKPGKAPKLLIYAASSLQSGVPSRFNGSGSGTDFTLTISSLQPEDFATYYCQQSYSAPLTFGGGTKVEIK", "ELISA reading", 1.83),
    ("31E11 (antibody, V domains shown, Fully human mAb from XenoMouse hybridoma, tested as hybridoma supernatant) VH: QVQLVESGGGLVKPGGSLRLSCAASGFTFSDYYMSWIRQAPGKGLEWVSYISISGSTIYYADSVKGRFTISRDNAKNSLYLQMNSLRAEDTAVYYCARDDFWSGYYFNWFDPWGQGTLVTVSS VL: DIQMTQSPSSLSASVGDRVTITCRANQTISTFLNWYQQNPGKAPKLLIYAASSLQSGVPSRFSGSGSGTDFTLTISSLQPEDFATYYCQQTYIIPLTFGGGTKVEIK", "ELISA reading", 2.37),
    ("21H9 (antibody, V domains shown, Fully human mAb from XenoMouse hybridoma, tested as hybridoma supernatant) VH: QVPLVESGGGVVQPGRSLRLSCAASGFTFSSYGMHWVRQAPGKGLEWVAVIWYDGSNKYYADSVQGRFTISRDNSKNTLYLQMNSLRAEDTAVYYCARGVTMVRGLIIARYYYGLDVWGQGTTVTVSS VL: DIVMTQTPLSSPVTFGQPASISCRSSQSLVHSDGNTYLSWLQQRPGQPPRLLIYKISNRFFGVPDRFSGSGAGTDFTLKISRVEAEDVGLYYCMQSTQFPLTFGGGTKVEIK", "ELISA reading", 2.28),
    ("33B1 (antibody, V domains shown, Fully human mAb from XenoMouse hybridoma, tested as hybridoma supernatant) VH: EVQLVESGGGLVKPGGSLRLSCAASGFTFSSYTMNWVRQAPGKGLEWVSFIDSRSSYIYYADSVKGRFTISRDNAKNSLYLQMNSLRAEDTAVYYCSKDDWFEELWGQGTLVTVSS VL: DIQMTQSPSSLSASVGDRVTITCRASQGIRNDLGWYQQKPGKAPKRLIYATSSLQSGVPSRFSGSGSGTEFTLTISSLQPEDFATYYCLHHNSFPWTFGQGTKVEIK", "ELISA reading", 0.23),
]
